For each of the molecules below, state its ΔTm.
Test system: Calf thymus DNA
Experiment: Tested for thermal denaturation against CT-DNA at 0 hours
Type: nucleic-acid assay
Conditions: Bos taurus
Number in °C, nothing else.

Identify the measured ΔTm of CO[C@@H]1Nc2ncccc2C(=O)N2CCC[C@@H]12 for Calf thymus DNA.
0.3

Identify the measured ΔTm of CO[C@H]1Nc2nccnc2C(=O)N2CCC[C@@H]12 for Calf thymus DNA.
0.3

Identify the measured ΔTm of COc1cc2c(cc1OCc1ccccc1)N=C[C@@H]1CCCN1C2=O for Calf thymus DNA.
0.2

Identify the measured ΔTm of COC(=O)CCOc1cc2c(cc1OC)C(=O)N1CCC[C@H]1C=N2 for Calf thymus DNA.
0.3

Identify the measured ΔTm of COc1cc2c(cc1OCCCOCc1ccccc1)N=C[C@@H]1CCCN1C2=O for Calf thymus DNA.
0.2

Identify the measured ΔTm of COc1cc2c(cc1NC(=O)OCc1ccccc1)N=C[C@@H]1CCCN1C2=O for Calf thymus DNA.
0.1

Identify the measured ΔTm of C/C=C1\C[C@H]2C=Nc3cc(O)c(OC)cc3C(=O)N2C1 for Calf thymus DNA.
1

Identify the measured ΔTm of CO[C@H]1Nc2ncccc2C(=O)N2CCC[C@@H]12 for Calf thymus DNA.
0.3

Identify the measured ΔTm of COC(=O)c1c2c(nn1C)C(=O)N1CCC[C@H]1C=N2 for Calf thymus DNA.
0.2

Identify the measured ΔTm of COc1cc2c(cc1O)N=C[C@@H]1CCCN1C2=O for Calf thymus DNA.
0.3

Identify the measured ΔTm of COc1cc2c(cc1O)C(=O)N1CCC[C@H]1C=N2 for Calf thymus DNA.
0.3

Identify the measured ΔTm of O=C1c2cc3c(cc2N=C[C@@H]2CCCN12)OCO3 for Calf thymus DNA.
0.1

Identify the measured ΔTm of O=C1c2cc3c(cc2N=C[C@@H]2CCCN12)OCCO3 for Calf thymus DNA.
0.1

Identify the measured ΔTm of CCCCOC1CC[C@H]2C=Nc3cc(O)c(OC)cc3C(=O)N12 (some centres not stated) for Calf thymus DNA.
0.5

Identify the measured ΔTm of COc1nc(OC)c2c(n1)C(=O)N1CCC[C@H]1C=N2 for Calf thymus DNA.
0.1

Identify the measured ΔTm of COC1Nc2c(ccc(C)c2O)C(=O)N2C=C(/C=C/C(N)=O)C[C@@H]12 (some centres not stated) for Calf thymus DNA.
9.4

Identify the measured ΔTm of O=C1c2ccccc2N=C[C@@H]2CCCN12 for Calf thymus DNA.
0.3

---

Test system: Calf thymus DNA
Assay: Tested for thermal denaturation against CT-DNA at 18 hours
Settings: Bos taurus
Note to self: ΔTm under 0.6 °C means 1, ties and anything higher get -1.

Consider C/C=C1\C[C@H]2C=Nc3cc(O)c(OC)cc3C(=O)N2C1 . Does its ΔTm lie strictly below 0.6 °C?
-1

Consider O=C1c2cc3c(cc2N=C[C@@H]2CCCN12)OCCO3 . Does its ΔTm lie strictly below 0.6 °C?
1

Consider O=C1c2cc3c(cc2N=C[C@@H]2CCCN12)OCO3 . Does its ΔTm lie strictly below 0.6 °C?
1

Consider COC1Nc2c(ccc(C)c2O)C(=O)N2C=C(/C=C/C(N)=O)C[C@@H]12 (stereo not given in full) . Does its ΔTm lie strictly below 0.6 °C?
-1

Consider COc1cc2c(cc1OCc1ccccc1)N=C[C@@H]1CCCN1C2=O . Does its ΔTm lie strictly below 0.6 °C?
1

Consider CCCCOC1CC[C@H]2C=Nc3cc(O)c(OC)cc3C(=O)N12 (stereo not given in full) . Does its ΔTm lie strictly below 0.6 °C?
-1
